# test protocol: Single-dose pharmacokinetics in FVB mice (oral gavage, IV)
# recorded conditions: female, FVB, mouse, brain, po, 40 mg/kg
measurement label: Cmax (ng/g)
One number for each entry, in ng/g.

{"molecule": "Cc1cccc(Nc2nc(-c3ccc(-c4ccccc4)cc3)cs2)n1", "measurement label": "Cmax", "recorded value": 840}

For each of the molecules below, note its Cmax.
1. C(=N\Nc1ccc(-c2cnco2)cc1)/c1ccncc1 [IND54304, reference compound]
2. Cc1ccnc(Nc2nc(-c3ccc(-c4ccccn4)s3)cs2)c1

1: 123; 2: 568

###

# test protocol: in vitro
# recorded conditions: FVB, mouse, 20% brain homogenate, pH 7.4, nonbound free fraction in brain, 1 and 10 μM
measurement label: fraction unbound at 4 h

{"compound": "Cc1cccc(Nc2nc(-c3ccc(-c4ccccc4)cc3)cs2)n1 [IND24]", "fraction unbound at 4 h": "0.06 to 0.09"}

Provide one value: measured fraction unbound at 4 h of Cc1ccnc(Nc2nc(-c3ccc(-c4ccccn4)s3)cs2)c1 [IND81]
0.06 to 0.09

###

# test protocol: Hepatic microsomal stability, human
# recorded conditions: human, liver microsomes, pH 7.4
Provide the reported half-life at 1 μM of each item.

{"compound": "Cc1cccc(Nc2nc(-c3ccc(-c4ccccc4)cc3)cs2)n1", "half-life at 1 μM": "> 60 min"}
{"compound": "Cc1ccnc(Nc2nc(-c3ccncc3)cs2)c1", "half-life at 1 μM": "36 min"}
{"compound": "Cc1ccc(Nc2nc(-c3cc(-c4ccccc4)no3)cs2)nc1", "half-life at 1 μM": "54 min"}
{"compound": "COc1ccc(Nc2nc(-c3ccc(OC)c(OC)c3)cs2)nc1", "half-life at 1 μM": "58 min"}
{"compound": "COc1ccc(-c2csc(Nc3cc4ccccc4cn3)n2)cc1OC", "half-life at 1 μM": "> 60 min"}

For each of the molecules below, note its half-life at 1 μM.
1. Cc1ccnc(Nc2nc(-c3ccc(-c4ccccn4)s3)cs2)c1
2. Cc1cccc(Nc2nc(-c3cc4ccccc4o3)cs2)n1
3. c1ccc2cc(Nc3nc(-c4ccncc4)cs3)ncc2c1
4. COc1ccc(-c2csc(Nc3ccc4ccccc4n3)n2)cc1OC

1: 52 min; 2: > 60 min; 3: 53 min; 4: > 60 min

###

# test protocol: Hepatic microsomal stability, mouse
# recorded conditions: male, CD-1, mouse, liver microsomes, pH 7.4
Provide the reported half-life at 1 μM of each item.
Numbers only, in min.

Here are 2 compounds together with their reported answers.
{"compound": "Cc1ccnc(Nc2nc(-c3ccc(-c4ccccn4)s3)cs2)c1", "recorded value": 23}
{"compound": "Cc1cccc(Nc2nc(-c3ccc(-c4ccccc4)cc3)cs2)n1", "recorded value": 190}

Consider the additional compound presented here.
Provide one value: measured half-life at 1 μM of C(=N\Nc1ccc(-c2cnco2)cc1)/c1ccncc1 [IND54304, reference compound]
25

###

Provide the reported solubility of each item.
# test protocol: physchem
# recorded conditions: pH 1.2, simulated gastric fluid
Numbers only, in µM.

{"compound": "Cc1cccc(Nc2nc(-c3ccc(-c4ccc(N5CCN(C)CC5)nc4)cc3)cs2)n1", "recorded value": 37.1}
{"compound": "COCCOc1cc(-c2ccc(-c3csc(Nc4cccc(C)n4)n3)cc2)ccn1", "recorded value": 126}
{"compound": "Cc1cccc(Nc2nc(-c3ccc(-c4cc[n+]([O-])cc4)cc3)cs2)n1", "recorded value": 17.6}
{"compound": "Cc1cccc(Nc2nc(-c3ccc(-c4ccnc(N5CCN(C)CC5)c4)cc3)cs2)n1", "recorded value": 81.8}
{"compound": "Cc1cccc(Nc2nc(-c3ccc(-c4ccc(OCC#N)nc4)cc3)cs2)n1", "recorded value": 2.2}
{"compound": "COCCOc1ccc(-c2ccc(-c3csc(Nc4cccc(C)n4)n3)cc2)cn1", "recorded value": 62.8}

For each of the compounds below, note its solubility.
1. COCCOc1cccc(Nc2nc(-c3ccc(-c4ccccc4)cc3)cs2)n1
2. Cc1cccc(Nc2nc(-c3ccc(-c4ccc[n+]([O-])c4)cc3)cs2)n1
3. CN(C)c1cccc(Nc2nc(-c3ccc(-c4ccccc4)cc3)cs2)n1
4. O=C(Nc1nc(-c2ccc(-c3ccccc3)cc2)cs1)C1CC1
5. Cc1cccc(Nc2nc(-c3ccc(-c4ccc(N(C)C)nc4)cc3)cs2)n1
6. Cc1cccc(Nc2nc(-c3ccc(-c4ccc(OC(C)C)nc4)cc3)cs2)n1

[2.1, 49, 16.1, 17.7, 77.1, 13.1]
